All values here come from patent US9181266B2.

This section lists IC50 readings for human tankyrase 1 PARP catalytic domain, TNKS1P (Homo sapiens (Human)).
Result Type: IC50

* O=C(CN1CCC(c2nnc(-c3ccc(F)cc3)o2)CC1)NCc1nc2c(c(=O)[nH]1)COCC2 | 487 nM
* COc1ccc(C(=O)C2CCN(CC(=O)NCc3nc4c(c(=O)[nH]3)CCCCC4)CC2)cc1 | 575 nM
* CC(C)(C)CN(Cc1nc2c(c(=O)[nH]1)COCC2)C(=O)CN1CCC(C(=O)c2ccc(F)cc2)CC1 | 60 nM
* O=C(c1ccc(F)cc1)C1CCN(CC(=O)N(Cc2cccc(F)c2)Cc2nc3c(c(=O)[nH]2)COCC3)CC1 | 84 nM
* COc1ccc(-c2nnc(C3CCN(CC(=O)NCc4nc5c(c(=O)[nH]4)COCC5)CC3)o2)cc1 | 548 nM
* O=C(c1ccc(F)cc1)C1CCN(CC(=O)N(CCF)Cc2nc3c(c(=O)[nH]2)COCC3)CC1 | 72 nM
* O=C(c1ccc(F)cc1)C1CCN(CC(=O)N(Cc2ccncc2)Cc2nc3c(c(=O)[nH]2)COCC3)CC1 | 845 nM
* O=C(c1ccc(F)cc1)C1CCN(CC(=O)N(Cc2ccc(F)cc2)Cc2nc3c(c(=O)[nH]2)COCC3)CC1 | 138 nM
* O=C(c1ccc(F)cc1)C1CCN(CC(=O)N(Cc2nc3c(c(=O)[nH]2)COCC3)Cc2ccc(S(=O)(=O)N3CCOCC3)s2)CC1 | 561 nM
* O=C(c1ccc(F)cc1)C1CCN(CC(=O)N(Cc2nc3c(c(=O)[nH]2)COCC3)Cc2ccc(F)cc2F)CC1 | 77 nM
* O=C(CN1CCC(C(=O)c2ccc(F)cc2)CC1)NCc1nc2c(c(=O)[nH]1)COCC2 | 64 nM
* O=C(c1ccc(OC(F)(F)F)cc1)C1CCN(CC(=O)N(Cc2nc3c(c(=O)[nH]2)COCC3)CC(F)F)CC1 | 43 nM
* COCCN(Cc1nc2c(c(=O)[nH]1)COCC2)C(=O)CN1CCC(c2nnc(-c3ccccc3)o2)CC1 | 1130 nM
